Biological target: Estrogen Receptor (ERα) in MCF-7 cells (Homo sapiens (Human), UniProt P03372)
Sequence (P03372 whole entry): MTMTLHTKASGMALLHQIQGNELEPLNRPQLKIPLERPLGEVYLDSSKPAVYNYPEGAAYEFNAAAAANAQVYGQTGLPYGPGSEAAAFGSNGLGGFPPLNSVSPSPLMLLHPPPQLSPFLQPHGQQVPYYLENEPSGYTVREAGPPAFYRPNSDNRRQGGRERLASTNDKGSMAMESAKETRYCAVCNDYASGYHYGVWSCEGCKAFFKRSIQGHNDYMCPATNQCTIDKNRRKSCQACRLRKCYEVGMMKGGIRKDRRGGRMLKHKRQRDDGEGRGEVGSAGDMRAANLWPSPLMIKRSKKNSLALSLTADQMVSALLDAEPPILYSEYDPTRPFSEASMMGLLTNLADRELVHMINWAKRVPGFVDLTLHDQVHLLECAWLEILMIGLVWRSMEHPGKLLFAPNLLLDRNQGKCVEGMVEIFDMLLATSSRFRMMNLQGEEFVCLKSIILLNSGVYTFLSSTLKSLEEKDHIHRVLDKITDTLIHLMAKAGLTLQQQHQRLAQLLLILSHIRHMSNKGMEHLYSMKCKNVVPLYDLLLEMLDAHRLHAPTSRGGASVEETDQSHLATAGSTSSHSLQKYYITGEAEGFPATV
Test: Western blotting assay, ER down-regulation in MCF-7
Type: cell-based
Conditions: MCF-7, 100 nM compound, 48 h, vs 100 nM fulvestrant
For each entry below, report its MCF7 Western % ER deg vs Fv value.
Field: numeric (%). Do not append units.

Consider the compound shown here: `COc1ccc(OCCNCCCF)cc1[C@@H]1c2[nH]c3ccc(F)cc3c2C[C@@H](C)N1CC(F)(F)CO` What is its recorded MCF7 Western % ER deg vs Fv?
83

Please answer likewise for `Cc1c(OCCNCCCF)ccc(F)c1[C@@H]1c2[nH]c3ccc(F)cc3c2C[C@@H](C)N1C[C@@H](C)C(=O)O`
85

Please answer likewise for `Cc1c(OCCNCCC(F)F)ccc(F)c1[C@@H]1c2[nH]c3ccccc3c2C[C@@H](C)N1C[C@H](C)C(=O)O`
93

Please answer likewise for `C[C@@H]1Cc2c([nH]c3ccccc23)[C@@H](c2c(F)cnc(OCCNCCCF)c2F)N1CC(F)(F)F`
95

Please answer likewise for `Cc1c(OCCNCCCF)ccc(F)c1[C@@H]1c2[nH]c3ccccc3c2C[C@@H](C(F)(F)F)N1C[C@H](C)C(=O)O`
84

----------
Target: hERG potassium channel (Homo sapiens (Human), UniProt Q12809)
Sequence (Q12809 whole entry): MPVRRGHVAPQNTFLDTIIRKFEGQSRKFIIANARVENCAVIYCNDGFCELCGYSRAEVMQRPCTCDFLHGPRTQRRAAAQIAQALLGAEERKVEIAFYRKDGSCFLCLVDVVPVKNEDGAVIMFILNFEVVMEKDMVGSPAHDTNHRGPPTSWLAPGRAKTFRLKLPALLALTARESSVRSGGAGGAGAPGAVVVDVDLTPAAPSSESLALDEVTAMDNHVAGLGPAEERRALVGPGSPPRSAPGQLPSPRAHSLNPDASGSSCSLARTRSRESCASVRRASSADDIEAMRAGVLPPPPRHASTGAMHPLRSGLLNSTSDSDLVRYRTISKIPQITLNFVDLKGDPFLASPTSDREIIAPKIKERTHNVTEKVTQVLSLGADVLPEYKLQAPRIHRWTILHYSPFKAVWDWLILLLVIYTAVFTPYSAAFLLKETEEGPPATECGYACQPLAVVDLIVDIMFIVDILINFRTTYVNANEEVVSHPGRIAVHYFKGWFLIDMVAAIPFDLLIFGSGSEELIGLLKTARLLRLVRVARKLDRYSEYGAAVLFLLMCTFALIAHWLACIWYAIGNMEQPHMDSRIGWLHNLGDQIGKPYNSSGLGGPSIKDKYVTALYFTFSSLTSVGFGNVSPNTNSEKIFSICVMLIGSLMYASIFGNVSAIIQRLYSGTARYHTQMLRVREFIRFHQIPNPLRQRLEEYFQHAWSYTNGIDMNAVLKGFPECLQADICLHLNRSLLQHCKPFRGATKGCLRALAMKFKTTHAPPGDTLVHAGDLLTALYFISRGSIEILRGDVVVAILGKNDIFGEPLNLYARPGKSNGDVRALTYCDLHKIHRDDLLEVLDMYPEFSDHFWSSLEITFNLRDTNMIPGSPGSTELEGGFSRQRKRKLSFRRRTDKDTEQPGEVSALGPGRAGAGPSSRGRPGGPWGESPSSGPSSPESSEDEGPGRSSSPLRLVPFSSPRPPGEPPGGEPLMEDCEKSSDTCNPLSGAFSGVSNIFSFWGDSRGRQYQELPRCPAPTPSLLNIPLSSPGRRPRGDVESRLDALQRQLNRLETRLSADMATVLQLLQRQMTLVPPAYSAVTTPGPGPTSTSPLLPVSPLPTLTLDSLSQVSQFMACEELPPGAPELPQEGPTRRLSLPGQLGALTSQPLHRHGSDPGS
The label is criterion met for IC50 below 6 µM and criterion not met for IC50 equal to or exceeding 6 µM.

Is the reported IC50 for `C[C@@H]1Cc2c([nH]c3ccccc23)[C@@H](c2c(F)ccc(OCCNCCCF)c2F)N1CC1(S(C)(=O)=O)CC1` strictly below 6 µM?
criterion met

Please answer likewise for `COCc1ccc(OCCNCCCF)cc1[C@@H]1c2[nH]c3ccccc3c2C[C@@H](C)N1CC(F)(F)F`
criterion met

Please answer likewise for `Cc1c([C@@H]2c3[nH]c4ccccc4c3C[C@@H](C)N2C[C@@H](C)C(=O)O)ccnc1OCCN(C)CCCF`
criterion not met

Please answer likewise for `COc1ccc(OCCNCCCF)c(F)c1[C@@H]1c2[nH]c3ccccc3c2C[C@@H](C)N1CC1(F)COC1`
criterion met

Please answer likewise for `COc1c(F)cc(OCCNCCCF)c(F)c1[C@@H]1c2[nH]c3ccccc3c2C[C@@H](C)N1CC(F)(F)F`
criterion met

Please answer likewise for `Cc1c(NCCNCCCF)ccnc1[C@@H]1c2[nH]c3ccccc3c2C[C@@H](C)N1CC(F)(F)F`
criterion not met

----------
For each entry below, report its logD value.
Experiment: Log D (shake flask, 1-octanol/aqueous buffer)
Format: physicochemical
Conditions: 1-octanol/aqueous buffer, pH 7.4, pH 7.4
Reply with the value as a number alone.

Consider the compound shown here: `C[C@@H]1Cc2c([nH]c3ccccc23)[C@@H](c2c(F)cnc(OCCNCCCF)c2Cl)N1CC(F)(F)CO` What is its recorded logD?
3.1

Please answer likewise for `C[C@@H]1Cc2c([nH]c3ccccc23)[C@@H](c2nccc(OCCNCCCF)c2F)N1CC1(F)CC1`
2.1

Please answer likewise for `C[C@@H]1Cc2c([nH]c3ccc(F)cc23)[C@@H](c2c(F)ccc(OCCNCCCF)c2F)N1CC(F)(F)CO`
2.9

Please answer likewise for `Cc1c(OCCN(C)CCCF)ccc(F)c1[C@@H]1c2[nH]c3ccccc3c2C[C@@H](C)N1CCC(=O)O`
0.7

Please answer likewise for `C[C@@H]1Cc2c([nH]c3ccccc23)[C@@](C)(c2cccc(OCCNCCCF)c2)N1CC(F)(F)F`
4.5

Please answer likewise for `Cc1ccc2[nH]c3c(c2c1)C[C@@H](C)N(CC(F)(F)CO)[C@@H]3c1c(F)cnc(OCCNCCCF)c1F`
3

Please answer likewise for `COc1cc(F)c(NCCNCCCF)cc1[C@@H]1c2[nH]c3ccccc3c2C[C@@H](C)N1CC(F)(F)F`
2.9
